# ASSAYED SYSTEM: T1, Recombinant hIL-21-Fc (AcroBiosystems) (human, UniProt Q9HBE4 30-162)
# T1 construct: bought; also called rhIL-21; not shown: Fc of the bought reagent, not described
# T1 sequence (Q9HBE4 30-162): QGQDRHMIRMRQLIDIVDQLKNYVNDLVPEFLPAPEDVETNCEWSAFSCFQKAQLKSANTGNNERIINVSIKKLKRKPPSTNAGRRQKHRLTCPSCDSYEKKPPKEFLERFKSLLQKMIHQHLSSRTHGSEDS
# METHOD: SPR, Fab on captured rhIL-21-Fc
MEASURED PARAMETER: kon (M⁻¹ s⁻¹)
Note: unit M⁻¹ s⁻¹ is implicit; provide only the numeric part.

Measured kon of ZAP122m3 Fab (Fab, V domains shown, Fab) VH: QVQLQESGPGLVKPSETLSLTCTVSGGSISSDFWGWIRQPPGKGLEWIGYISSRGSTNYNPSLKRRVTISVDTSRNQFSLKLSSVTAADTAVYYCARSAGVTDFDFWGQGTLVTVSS VL: DIQMTQSPSSVSASVGDRVTITCRASQGISSWLAWYQHKPGKAPKLLIYAASSLQSGVPSRFSGSGSGTDFTLTISSLQPEDFATYYCQQANSFPLTFGGGTKVEIK : 370000

# binder ZAP122m23 Fab (Fab, V domains shown, Fab) VH: QVQLQESGPGLVKPSETLSLTCTVSGGSISSDFWGWIRQPPGKGLEWIGYISSRGSTNYNPSLKRRVTISVDTSRNQFSLKLSSVTAADTAVYYCARSAGVADFDFWGQGTLVTVSS VL: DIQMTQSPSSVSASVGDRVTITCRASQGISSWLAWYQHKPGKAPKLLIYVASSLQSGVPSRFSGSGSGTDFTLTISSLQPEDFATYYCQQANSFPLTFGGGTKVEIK ; its kon = 240000
